Values compiled from PubChem BioAssay AID1996.

settings: buffer; pH 7.4; 200.0 µM
Observation type: solubility kinetic

Worked examples follow.
## Input Name the reported solubility kinetic value associated with the compound CCOC(=O)CN1C(=O)SC(Nc2ccc(C)cc2)C1=O (centres undefined)
## Output > 46.3 µg/mL

## Input Name the reported solubility kinetic value associated with the compound Cn1cnc(S(=O)(=O)Nc2ccccc2N2CCOCC2)c1
## Output > 48.4 µg/mL

## Input Name the reported solubility kinetic value associated with the compound NC(=O)c1ccc(=O)n(Cc2ccc(Cl)cc2Cl)c1
## Output > 44.6 µg/mL

## Input Name the reported solubility kinetic value associated with the compound O=C(COC(=O)c1ccccc1Br)NCC1CCCO1 (centres undefined)
## Output > 51.3 µg/mL

## Input Name the reported solubility kinetic value associated with the compound CN(CC(=O)NC1CC1)S(=O)(=O)c1cc(Cl)ccc1Cl
## Output > 50.6 µg/mL

## Input Name the reported solubility kinetic value associated with the compound S=C1SCN(Cc2cccnc2)CN1Cc1cccnc1
## Output > 47.5 µg/mL

---
## Input Name the reported solubility kinetic value associated with the compound CCOC(=O)C1CCCN(C(=O)c2cc3ccc(OC)cc3[nH]2)C1 (centres undefined)
## Output > 49.6 µg/mL

## Input Name the reported solubility kinetic value associated with the compound CCNC(=O)c1ccccc1SCC(=O)Nc1ccc(F)cc1
## Output > 49.9 µg/mL

## Input Name the reported solubility kinetic value associated with the compound O=C(COC(=O)Cc1ccsc1)Nc1ccc(Cl)cn1
## Output > 46.6 µg/mL

###

settings: buffer; pH 7.4; 200.0 µM
Observation type: solubility kinetic (µg/mL)
Reply numerically in µg/mL, unit not repeated.

## Input Name the reported solubility kinetic value associated with the compound N#C/C(=C\c1cccs1)C(=O)N1CCOCC1
## Output 35.5

## Input Name the reported solubility kinetic value associated with the compound COc1ccc(NC(=O)c2nc(SC)ncc2Cl)cc1
## Output 8.2

## Input Name the reported solubility kinetic value associated with the compound Cc1cccc(OCC(=O)N2CCCc3ccccc32)c1
## Output 30.3

## Input Name the reported solubility kinetic value associated with the compound Cc1ccc(NC(=O)c2ccc3nsnc3c2)c(C)c1
## Output 1.5

## Input Name the reported solubility kinetic value associated with the compound COc1cccc(CNC(=O)COC(=O)C23CC4CC(CC(Cl)(C4)C2)C3)c1
## Output 21.1

---
## Input Name the reported solubility kinetic value associated with the compound CCOC(=O)c1nc(Nc2cccc(C)c2)c2ccccc2n1
## Output 10.8

## Input Name the reported solubility kinetic value associated with the compound N#Cc1ccc(C(=O)NCC2CCCCC2)cc1
## Output 19.9

## Input Name the reported solubility kinetic value associated with the compound O=C(Nc1cccc2ncccc12)c1ccccc1F
## Output 39.7

## Input Name the reported solubility kinetic value associated with the compound COC(=O)C1CCN(Cc2cc(=O)oc3cc(C)c(Cl)cc23)CC1
## Output 4.7

## Input Name the reported solubility kinetic value associated with the compound Cc1ccc(C)n1CCN1CCN(C(=O)c2ccc(Cl)cc2)CC1
## Output 36.3

###

conditions: buffer; pH 7.4; 200.0 µM
Observation type: solubility kinetic

## Input Name the reported solubility kinetic value associated with the molecule NC(=O)CCN1CCCCC1
## Output > 23.4 µg/mL

## Input Name the reported solubility kinetic value associated with the molecule COc1ccc(OC)c(C(=O)COC(=O)c2ccc([N+](=O)[O-])o2)c1
## Output > 50.3 µg/mL

## Input Name the reported solubility kinetic value associated with the molecule CC(C)(C)OC(=O)N1CCC(CNC(=O)Nc2ccccc2)CC1
## Output > 50 µg/mL

---
## Input Name the reported solubility kinetic value associated with the molecule O=C(Nc1ccc([N+](=O)[O-])cc1)c1cc(Cl)sc1Cl
## Output < 0.3 µg/mL

## Input Name the reported solubility kinetic value associated with the molecule O=C(NCc1ccccc1CN1CCCC1)c1cc2ccccc2o1
## Output > 50.2 µg/mL

## Input Name the reported solubility kinetic value associated with the molecule Cc1cc(NC(=O)CSc2nc3c(C)c(C)ccc3cc2C)no1
## Output < 0.2 µg/mL

## Input Name the reported solubility kinetic value associated with the molecule COc1ccccc1C(=O)NC(=O)CSc1nnc2ccccn12
## Output > 51.4 µg/mL
